- EXPERIMENTAL TARGET: TRIM24 PHD-BRD (Homo sapiens)
- Sequence (O15164 with tags, fused parts or gaps): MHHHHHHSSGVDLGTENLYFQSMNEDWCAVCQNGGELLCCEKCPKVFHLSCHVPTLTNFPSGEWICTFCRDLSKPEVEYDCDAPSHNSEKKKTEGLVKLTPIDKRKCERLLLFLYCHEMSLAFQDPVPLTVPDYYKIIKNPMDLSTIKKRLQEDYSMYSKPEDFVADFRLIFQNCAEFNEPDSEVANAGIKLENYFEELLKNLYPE
- TEST DESCRIPTION: AlphaScreen dose-response displacement of biotinylated H3 peptide
- CONDITIONS: TRIM24 IC50 (AlphaScreen), peptide in assay H31-27K9Me3K18Ac (DUAL)
pIC50: −log10 of the molar value.
Could you label it T if measured pIC50 is 5 or higher, and F otherwise?

Use these answered entries as a reference point.
| SMILES STR | ASSIGNED CLASS |
| --- | --- |
| Cc1nc[nH]c1-c1nc2ccccn2c1NC1CCCCC1 | T |
| COc1ccc(Nc2c(-c3[nH]cnc3C)nc3ccc(Br)cn23)cc1 | T |
| CC(C)(C)Nc1c(-c2c[nH]c3ncccc23)nc2ccccn12 | F |

Consider the additional molecule presented here.
Exercise: Determine whether measured pIC50 meets or exceeds 5 for Cc1nc[nH]c1-c1nc2ccccn2c1NCCN1CCOCC1
Key: F

###

- EXPERIMENTAL TARGET: TRIM33β PHD-BRD (Homo sapiens)
- Sequence (Q9UPN9 888-1110 isoform Q9UPN9-2 limits assumed): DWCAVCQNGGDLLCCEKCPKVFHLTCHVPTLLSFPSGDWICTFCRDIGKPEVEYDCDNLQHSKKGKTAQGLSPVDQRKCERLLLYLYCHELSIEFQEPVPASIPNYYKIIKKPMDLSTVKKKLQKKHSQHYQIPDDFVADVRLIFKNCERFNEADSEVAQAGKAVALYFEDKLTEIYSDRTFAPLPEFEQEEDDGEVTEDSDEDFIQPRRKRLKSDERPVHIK
- TEST DESCRIPTION: AlphaScreen dose-response displacement of biotinylated H3 peptide
- CONDITIONS: peptide in assay H31-27K9Me3K18Ac (DUAL)
REPORTED METRIC: pIC50
Formally, pIC50 is defined as -log10 of the concentration c, with c in mol/L.

| COMPOUND | pIC50 |
| --- | --- |
| COc1ccc(Nc2c(-c3[nH]cnc3C)nc3ccc(Br)cn23)cc1 [Compound 3] | 5.74 |

Exercise: Query (compound): Cc1nc[nH]c1-c1nc2ccccn2c1NCCN1CCOCC1 [Compound 4] ; field requested: pIC50
Key: 4.23

Exercise: Similarly, COC(=O)c1ccc2nc(-c3c[nH]c(C)n3)c(NC3CCCCC3)n2c1 [Compound 6] ?
Key: 5.05

Exercise: Similarly, Cc1nc[nH]c1-c1nc2ccccn2c1NC1CCCCC1 [Compound 5] ?
Key: 5.51

###

- EXPERIMENTAL TARGET: UniProt Q9UPN9
- TEST DESCRIPTION: AlphaScreen dose-response displacement of biotinylated H3 peptide
- CONDITIONS: TRIM33α IC50 (AlphaScreen), peptide in assay H31-27K9Me3K18Ac (DUAL)
REPORTED METRIC: IC50 (µM)
Write the answer as a number in µM, unit excluded.

| SMILES STR | SCALE UNIT | IC50 |
| --- | --- | --- |
| COC(=O)c1ccc2nc(-c3c[nH]c(C)n3)c(NC3CCCCC3)n2c1 | µM | 75.1 |
| COc1ccc(Nc2c(-c3[nH]cnc3C)nc3ccc(Br)cn23)cc1 | µM | 1.15 |

Exercise: Query (molecule): Cc1nc[nH]c1-c1nc2ccccn2c1NC1CCCCC1 ; field requested: IC50
Key: 1.68

###

- EXPERIMENTAL TARGET: TRIM33α PHD-BRD (Homo sapiens, UniProt Q9UPN9)
- Sequence (Q9UPN9 888-1127): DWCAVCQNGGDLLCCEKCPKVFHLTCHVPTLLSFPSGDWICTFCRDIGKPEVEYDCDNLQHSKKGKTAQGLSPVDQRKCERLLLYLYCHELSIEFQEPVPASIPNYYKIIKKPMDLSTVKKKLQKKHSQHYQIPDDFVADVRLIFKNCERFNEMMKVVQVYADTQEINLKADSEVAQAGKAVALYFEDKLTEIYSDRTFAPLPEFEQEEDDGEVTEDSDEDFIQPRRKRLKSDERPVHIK
- TEST DESCRIPTION: AlphaScreen dose-response displacement of biotinylated H3 peptide
- CONDITIONS: TRIM33α IC50 (AlphaScreen), peptide in assay H31-27K9Me3 (PHD)
pIC50: −log10 of the molar value.
REPORTED METRIC: pIC50

Exercise: Query (compound): CC(C)(C)Nc1c(-c2c[nH]c3ncccc23)nc2ccccn12 ; field requested: pIC50
Key: < 3.60

Exercise: Similarly, Cc1nc[nH]c1-c1nc2ccccn2c1NCCN1CCOCC1 ?
Key: < 3.60

Exercise: Similarly, COC(=O)c1ccc2nc(-c3c[nH]c(C)n3)c(NC3CCCCC3)n2c1 ?
Key: < 3.60
